- assay_comment: acute toxicity in mice (LD50)
- Type: in vivo
- applied_conditions: mouse, in vivo, iv, male mouse
Listed here: items and their measured LD50.

Illustrative cases are given below, each with its answer.
# compound, LD50
records = [
    ("CCN1CCCC1CNC(=O)c1cc(S(=O)(=O)CC)c(N)cc1OC (centres unmarked) [Compound 1]", "56 to 60 mg/kg"),
    ("CCS(=O)(=O)c1cc(C(=O)NCC2CCCN2C)c(OC)cc1N (single isomer, unassigned) [Compound 6]", "62 to 64 mg/kg"),
    ("CCS(=O)(=O)c1cc(C(=O)NCC2CCCN2C)c(OC)cc1N (centres unmarked) [Compound 2]", "56 to 57 mg/kg"),
]

Return LD50 for the following compound: C=CCN1CCCC1CNC(=O)c1cc(S(=O)(=O)CC)c(N)cc1OC (centres unmarked) [Compound 3]
106 to 107 mg/kg

Return LD50 for the following compound: CCN1CCCC1CNC(=O)c1cc(S(C)(=O)=O)c(N)cc1OC (centres unmarked) [Compound 8]
46.5 to 50 mg/kg

Return LD50 for the following compound: CCCS(=O)(=O)c1cc(C(=O)NCC2CCCN2CC)c(OC)cc1N (centres unmarked) [Compound 7]
43 to 46.8 mg/kg

Return LD50 for the following compound: CCN1CCCC1CNC(=O)c1cc(S(=O)(=O)CC)c(N)cc1OC (single isomer, unassigned) [Compound 4]
39.8 mg/kg

Return LD50 for the following compound: COc1cc(N)c(S(C)(=O)=O)cc1C(=O)NCC1CCCN1C (centres unmarked) [Compound 9]
54 mg/kg

Data origin, for the record: patent US4401822A
